Catalogue of Kd readings, one per entry.
Experiment: Binding affinity to HIV1 25-2AP TAR by 2-AP based fluorescence assay
Design: species or system Human immunodeficiency virus 1
Details: read-out: Kd(app)

These solved cases illustrate the format of a correct answer.
mol smiles	readout label	observed measurement
Cc1ccc2c(N)c(S(=O)(=O)Nc3cccc(F)c3)sc2n1	Kd	> 400 µM
Cc1ccc2c(N)c(C(=O)Nc3ccc(C(F)(F)F)cc3)sc2n1	Kd	75.3 µM
Cc1ccc2c(N)c(C(=O)Nc3ccncc3)sc2n1	Kd	40 µM

Ask: What value of Kd has been reported for the following compound? `Cc1ccc2cc(C(=O)Nc3cccc(C(F)(F)F)c3)sc2n1`
Reply: > 400 µM

Ask: Another: `Cc1ccc2c(N)c(S(=O)(=O)Nc3cccc(C(F)(F)F)c3)sc2n1`
Reply: > 400 µM

* * *

Overview of recorded pKd for various molecules
Experiment: Binding affinity to HIV1 23-2AP TAR by 2-AP based fluorescence assay
Set-up: species or system Human immunodeficiency virus 1
Conditions: read-out: Kd(app)
# log scale: pKd equals minus log10 of the concentration in mol/L

mol smiles	pKd
Cc1ccc2c(N)c(C(=O)Nc3cccc(C(F)(F)F)c3)sc2n1	4.27
Cc1ccc2c(N)c(C(=O)Nc3cccnc3)sc2n1	4.05
Nc1c(-c2nnc(-c3cccc(C(F)(F)F)c3)o2)sc2ncccc12	4.36
Cc1ccc2c(N)c(C(=O)Nc3ccncc3)sc2n1	4.29

Ask: What value of pKd has been reported for the following molecule? `Cc1ccc2c(N)c(-c3nnc(-c4cccc(C(F)(F)F)c4)o3)sc2n1`
Reply: 4.12

* * *

Items are presented alongside their recorded pKd.
Experiment: Binding affinity to HIV1 25-2AP TAR by 2-AP based fluorescence assay
Parameters: species or system Human immunodeficiency virus 1
Conditions: read-out: Kd(app)
Please treat pKd as minus the base-10 logarithm of the molar concentration.

Examples with their reported pKd follow.
mol smiles	observed measurement
Cc1ccc2c(N)c(-c3nnc(-c4cccc(C(F)(F)F)c4)o3)sc2n1	4.31
Cc1ccnc2sc(C(=O)Nc3cccc(C(F)(F)F)c3)c(N)c12	4.18
Cc1cnc2sc(C(=O)Nc3cccc(C(F)(F)F)c3)c(N)c2c1	4.31

# context switch: different molecule, same pKd
Ask: Reported pKd for `Cc1ccc2c(N)c(C(=O)NCc3cccc(C(F)(F)F)c3)sc2n1` : what is it?
Reply: 4.18

* * *

Listing of recorded Kd by entry.
Assay: Binding affinity to HIV1 23-2AP TAR by 2-AP based fluorescence assay
Parameters: species or system Human immunodeficiency virus 1
Conditions: read-out: Kd(app)

mol smiles	Kd
Cc1ccc2cc(C(=O)Nc3cccc(C(F)(F)F)c3)sc2n1	> 400 µM
Cc1ccc2c(N)c(S(=O)(=O)Nc3cccc(C(F)(F)F)c3)sc2n1	> 400 µM

Now for another entry.
Ask: For `Cc1ccc2c(N)c(S(=O)(=O)Nc3cccc(F)c3)sc2n1` , what is its reported Kd?
Reply: > 400 µM

* * *

Kd values by entry
Experiment: Binding affinity to HIV1 25-2AP TAR by 2-AP based fluorescence assay
Parameters: species or system Human immunodeficiency virus 1
Conditions: read-out: Kd(app)
Hi! Could you send only the number? It should be in µM, unit omitted.

mol smiles	Kd, µM
Cc1ccc2c(N)c(-c3nnc(-c4ccccc4)o3)sc2n1	44.6
Cc1ccc2c(N)c(C(=O)Nc3ccccc3C(F)(F)F)sc2n1	90.1
Cc1ccc2c(N)c(C(=O)Nc3cccnc3)sc2n1	68

Ask: What does the data say about its Kd? Entry: `Cc1ccc2c(N)c(C(=O)Nc3ccccn3)sc2n1`
Reply: 50.3

Ask: Thanks! And `Cc1ccc2c(N)c(-c3nnc(-c4cccc(Cl)c4)o3)sc2n1` ?
Reply: 42.5

Ask: Next entry: `Cc1ccc2c(N)c(C(=O)Nc3cccc(C(F)(F)F)c3)sc2n1`
Reply: 47.7
